The origin of these recorded values is patent US20150086555A1.

# measuredOn: recombinant soluble homotrimeric HA of A/chicken/Vietnam/NCVD-016/08 (H5N1) (Influenza A virus A/chicken/Vietnam/NCVD-016/2008(H5N1))
# test: trimeric HA microarray, transfection supernatant set 3
# runParameters: remark: other sources report otherwise
So I've got a bunch of binders here, and I need their Trimeric HA Binding: RLU values.

Below are 2 binders. Give each one its Trimeric HA Binding: RLU.
1. TCN-504 (3251_K17) (antibody, V domains shown) VH: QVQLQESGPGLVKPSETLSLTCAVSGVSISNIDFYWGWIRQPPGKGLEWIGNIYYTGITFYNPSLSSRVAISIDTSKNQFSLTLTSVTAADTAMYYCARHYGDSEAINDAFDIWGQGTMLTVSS VL: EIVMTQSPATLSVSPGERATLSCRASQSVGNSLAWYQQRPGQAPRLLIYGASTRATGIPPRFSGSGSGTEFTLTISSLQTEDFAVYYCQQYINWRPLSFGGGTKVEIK
2. TCN-529 (5297_H01) (antibody, V domains shown) VH: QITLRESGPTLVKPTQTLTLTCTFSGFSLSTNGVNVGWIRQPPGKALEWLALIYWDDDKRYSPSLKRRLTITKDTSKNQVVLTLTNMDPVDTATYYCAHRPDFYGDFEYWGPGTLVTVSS VL: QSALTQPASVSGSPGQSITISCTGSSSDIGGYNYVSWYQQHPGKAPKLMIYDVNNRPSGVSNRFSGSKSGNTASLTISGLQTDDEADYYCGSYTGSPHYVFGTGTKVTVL

["10300 RLU", "33 RLU"]
